Test system: UMC-11 (Other Solid Carcinomas)
TEST_PROTOCOL: combination Emax (second highest fraction inhibited in the dose matrix, 72 h); higher = more inhibition; extreme values may be limits of the assay
For each of the compounds below, state its combination Emax.
Reply with just the number.

// fetch combination Emax given entry CC1(C)CCC(CN2CCN(c3ccc(C(=O)NS(=O)(=O)c4ccc(NCC5CCOCC5)c([N+](=O)[O-])c4)c(Oc4cnc5[nH]ccc5c4)c3)CC2)=C(c2ccc(Cl)cc2)C1 [Venetoclax] + CN(C)CCCOc1ccc(-c2ccc3ncc4c(c3c2)n(C2CCOCC2)c(=O)n4C)cn1 [AZD0156] (first compound max 1 µM, 7x7, partner max 1 µM)
0.269

// fetch combination Emax given entry CC(=O)Nc1cccc(-n2c(=O)n(C3CC3)c(=O)c3c(Nc4ccc(I)cc4F)n(C)c(=O)c(C)c32)c1 [Trametinib] + Cc1nc(-c2cn3c(n2)-c2ccc(-c4cnn(C(C)(C)C(N)=O)c4)cc2OCC3)n(C(C)C)n1 [Taselisib] (first compound max 1 µM, 7x7, partner max 10 µM)
0.355

// fetch combination Emax given entry C[C@@H](c1ccc2nccn2c1)n1nnc2ncc(-c3cnn(C)c3)nc21 [Savolitinib] + Cc1c2c(nn1C)CSCc1cc(n(C)n1)CSc1cc(c3ccccc3c1)OCCCc1c(C(=O)O)n(C)c3c-2c(Cl)ccc13 [AZD5991] (first compound max 1 µM, 7x7, partner max 1 µM)
0.275

---

Tested on: NCI-H2461 (Mesothelioma)
TEST_PROTOCOL: combination Emax (second highest fraction inhibited in the dose matrix, 72 h); higher = more inhibition; extreme values may be limits of the assay
EXPERIMENTAL_ENDPOINT: combination Emax
Reply with just the number.

// fetch combination Emax given entry Cc1cc2ncnn2cc1Nc1ncc2c(n1)n(C1CCOCC1)c(=O)n2C [AZD7648] + C=CCn1c(=O)c2cnc(Nc3ccc(N4CCN(C)CC4)cc3)nc2n1-c1cccc(C(C)(C)O)n1 [AZD1775] (first compound max 10 µM, partner max 1 µM)
0.659

// fetch combination Emax given entry CCN(CCO)CCCOc1ccc2c(Nc3cc(CC(=O)Nc4cccc(F)c4)[nH]n3)ncnc2c1 [AZD2811] + O=C(c1cc(Cc2n[nH]c(=O)c3ccccc23)ccc1F)N1CCN(C(=O)C2CC2)CC1 [Olaparib] (first compound max 1 µM, 7x7, partner max 10 µM)
0.278

// fetch combination Emax given entry C[C@@H](c1ccc2nccn2c1)n1nnc2ncc(-c3cnn(C)c3)nc21 [Savolitinib] + Cc1c2c(nn1C)CSCc1cc(n(C)n1)CSc1cc(c3ccccc3c1)OCCCc1c(C(=O)O)n(C)c3c-2c(Cl)ccc13 [AZD5991] (first compound max 1 µM, 7x7, partner max 1 µM)
0.345

// fetch combination Emax given entry Cn1cnc2c(F)c(Nc3ccc(Br)cc3Cl)c(C(=O)NOCCO)cc21 [Selumetinib] + CCN(CCO)CCCOc1ccc2c(Nc3cc(CC(=O)Nc4cccc(F)c4)[nH]n3)ncnc2c1 [AZD2811] (first compound max 10 µM, 7x7, partner max 1 µM)
0.397

---

System: TE-4 (Esophageal Squamous Cell Carcinoma)
TEST_PROTOCOL: combination Emax (second highest fraction inhibited in the dose matrix, 72 h); higher = more inhibition; extreme values may be limits of the assay
EXPERIMENTAL_ENDPOINT: combination Emax
Reply with just the number.

Specify combination Emax for C[C@@H](c1ccc2nccn2c1)n1nnc2ncc(-c3cnn(C)c3)nc21 [Savolitinib] + Cc1c2c(nn1C)CSCc1cc(n(C)n1)CSc1cc(c3ccccc3c1)OCCCc1c(C(=O)O)n(C)c3c-2c(Cl)ccc13 [AZD5991] (first compound max 1 µM, 7x7, partner max 1 µM) , system TE-4 (Esophageal Squamous Cell Carcinoma).
0.422

Specify combination Emax for NC1(C(=O)N[C@@H](CCO)c2ccc(Cl)cc2)CCN(c2ncnc3[nH]ccc23)CC1 [Capivasertib] + CCN(CCO)CCCOc1ccc2c(Nc3cc(CC(=O)Nc4cccc(F)c4)[nH]n3)ncnc2c1 [AZD2811] (first compound max 10 µM, 7x7, partner max 1 µM) , system TE-4 (Esophageal Squamous Cell Carcinoma).
0.748

Specify combination Emax for CN(CCO)CC[C@H](CSc1ccccc1)Nc1ccc(S(=O)(=O)NC(=O)c2ccc(N3CCC([C@@H](O)c4ccccc4-c4ccc(Cl)cc4)CC3)cc2)cc1S(=O)(=O)C(F)(F)F [AZD4320] + Cn1cnc2c(F)c(Nc3ccc(Br)cc3Cl)c(C(=O)NOCCO)cc21 [Selumetinib] (first compound max 1 µM, 7x7, partner max 3 µM) , system TE-4 (Esophageal Squamous Cell Carcinoma).
0.308

---

For each of the compounds below, state its combination Emax.
System: NCI-H2795 (Mesothelioma)
TEST_PROTOCOL: combination Emax (second highest fraction inhibited in the dose matrix, 72 h); higher = more inhibition; extreme values may be limits of the assay
Reply with just the number.

// fetch combination Emax given entry C=CCn1c(=O)c2cnc(Nc3ccc(N4CCN(C)CC4)cc3)nc2n1-c1cccc(C(C)(C)O)n1 [AZD1775] + CCc1c2c(nc3ccc(O)cc13)-c1cc3c(c(=O)n1C2)COC(=O)[C@]3(O)CC [SN-38] (first compound max 1 µM, partner max 0.3 µM)
0.779

// fetch combination Emax given entry CC1(C)CCC(CN2CCN(c3ccc(C(=O)NS(=O)(=O)c4ccc(NCC5CCOCC5)c([N+](=O)[O-])c4)c(Oc4cnc5[nH]ccc5c4)c3)CC2)=C(c2ccc(Cl)cc2)C1 [Venetoclax] + CN(C)CCCOc1ccc(-c2ccc3ncc4c(c3c2)n(C2CCOCC2)c(=O)n4C)cn1 [AZD0156] (first compound max 1 µM, 7x7, partner max 1 µM)
0.46

// fetch combination Emax given entry NC1(C(=O)N[C@@H](CCO)c2ccc(Cl)cc2)CCN(c2ncnc3[nH]ccc23)CC1 [Capivasertib] + C[C@@H]1COCCN1C2=NC(=NC(=C2)C3(CC3)[S@](=N)(=O)C)C4=C5C=CNC5=NC=C4 [AZD6738] (first compound max 10 µM, 7x7, partner max 10 µM)
0.737

// fetch combination Emax given entry NC1(C(=O)N[C@@H](CCO)c2ccc(Cl)cc2)CCN(c2ncnc3[nH]ccc23)CC1 [Capivasertib] + CC(=O)c1c(C)c2cnc(Nc3ccc(N4CCNCC4)cn3)nc2n(C2CCCC2)c1=O [Palbociclib] (first compound max 10 µM, 7x7, partner max 10 µM)
0.489

// fetch combination Emax given entry COc1nnc2ccc(N3CCC(c4ccc(OCCN5CCN(C)C(=O)[C@H]5C)cc4)CC3)nn12 [AZD5153] + CC1(C)CCC(CN2CCN(c3ccc(C(=O)NS(=O)(=O)c4ccc(NCC5CCOCC5)c([N+](=O)[O-])c4)c(Oc4cnc5[nH]ccc5c4)c3)CC2)=C(c2ccc(Cl)cc2)C1 [Venetoclax] (first compound max 1 µM, 7x7, partner max 1 µM)
0.465

// fetch combination Emax given entry N#Cc1cnc(Nc2cc(NC[C@H]3CNCCO3)c(C(F)(F)F)cn2)cn1 [SRA737] + CCc1c2c(nc3ccc(O)cc13)-c1cc3c(c(=O)n1C2)COC(=O)[C@]3(O)CC [SN-38] (first compound max 10 µM, 7x7, partner max 0.3 µM)
0.769

// fetch combination Emax given entry Cn1cnc2c(F)c(Nc3ccc(Br)cc3Cl)c(C(=O)NOCCO)cc21 [Selumetinib] + C=CCn1c(=O)c2cnc(Nc3ccc(N4CCN(C)CC4)cc3)nc2n1-c1cccc(C(C)(C)O)n1 [AZD1775] (first compound max 10 µM, partner max 1 µM)
0.851

// fetch combination Emax given entry COc1nnc2ccc(N3CCC(c4ccc(OCCN5CCN(C)C(=O)[C@H]5C)cc4)CC3)nn12 [AZD5153] + C=CCn1c(=O)c2cnc(Nc3ccc(N4CCN(C)CC4)cc3)nc2n1-c1cccc(C(C)(C)O)n1 [AZD1775] (first compound max 1 µM, partner max 1 µM)
0.597

// fetch combination Emax given entry COc1cccc(OCCCN)c1-c1cc(Nc2cnc(C#N)cn2)n[nH]1 [Prexasertib] + CN(C)CCCOc1ccc(-c2ccc3ncc4c(c3c2)n(C2CCOCC2)c(=O)n4C)cn1 [AZD0156] (first compound max 1 µM, 7x7, partner max 1 µM)
0.789

// fetch combination Emax given entry CN(CCO)CC[C@H](CSc1ccccc1)Nc1ccc(S(=O)(=O)NC(=O)c2ccc(N3CCC([C@@H](O)c4ccccc4-c4ccc(Cl)cc4)CC3)cc2)cc1S(=O)(=O)C(F)(F)F [AZD4320] + C[C@@H]1COCCN1C2=NC(=NC(=C2)C3(CC3)[S@](=N)(=O)C)C4=C5C=CNC5=NC=C4 [AZD6738] (first compound max 1 µM, 7x7, partner max 10 µM)
0.844

---

For each of the compounds below, state its Bliss excess.
Tested on: COLO-829 (Melanoma);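 note: after 72 h of two-drug dosing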
TEST_PROTOCOL: Bliss excess, mean over the matrix (fraction); higher = more synergy

Specify Bliss excess for COc1cc2c(cc1OCCCCCOc1cc3c(cc1OC)C(=O)N1C=C(C)C[C@H]1C=N3)N=C[C@@H]1CC(C)=CN1C2=O [SG3199] + O=C(c1cc(Cc2n[nH]c(=O)c3ccccc23)ccc1F)N1CCN(C(=O)C2CC2)CC1 [Olaparib] (first compound max 0.001 µM, 7x7, partner max 10 µM) , system COLO-829 (Melanoma).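 Note: after 72 h of two-drug dosing.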
-0.0476

Specify Bliss excess for CCc1c2c(nc3ccc(O)cc13)-c1cc3c(c(=O)n1C2)COC(=O)[C@]3(O)CC [SN-38] + CN(C)CCCOc1ccc(-c2ccc3ncc4c(c3c2)n(C2CCOCC2)c(=O)n4C)cn1 [AZD0156] (first compound max 0.3 µM, 7x7, partner max 1 µM) , system COLO-829 (Melanoma).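 Note: after 72 h of two-drug dosing.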
-0.0257

Specify Bliss excess for CN(CCO)CC[C@H](CSc1ccccc1)Nc1ccc(S(=O)(=O)NC(=O)c2ccc(N3CCC([C@@H](O)c4ccccc4-c4ccc(Cl)cc4)CC3)cc2)cc1S(=O)(=O)C(F)(F)F [AZD4320] + Cn1cnc2c(F)c(Nc3ccc(Br)cc3Cl)c(C(=O)NOCCO)cc21 [Selumetinib] (first compound max 1 µM, 7x7, partner max 3 µM) , system COLO-829 (Melanoma).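 Note: after 72 h of two-drug dosing.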
-0.0351

Specify Bliss excess for COc1nnc2ccc(N3CCC(c4ccc(OCCN5CCN(C)C(=O)[C@H]5C)cc4)CC3)nn12 [AZD5153] + C[C@@H]1COCCN1C2=NC(=NC(=C2)C3(CC3)[S@](=N)(=O)C)C4=C5C=CNC5=NC=C4 [AZD6738] (first compound max 1 µM, 7x7, partner max 10 µM) , system COLO-829 (Melanoma).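 Note: after 72 h of two-drug dosing.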
-0.0138

Specify Bliss excess for Cc1c2c(nn1C)CSCc1cc(n(C)n1)CSc1cc(c3ccccc3c1)OCCCc1c(C(=O)O)n(C)c3c-2c(Cl)ccc13 [AZD5991] + Cc1cc2ncnn2cc1Nc1ncc2c(n1)n(C1CCOCC1)c(=O)n2C [AZD7648] (first compound max 1 µM, 7x7, partner max 10 µM) , system COLO-829 (Melanoma).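 Note: after 72 h of two-drug dosing.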
-0.0341

Specify Bliss excess for NC1(C(=O)N[C@@H](CCO)c2ccc(Cl)cc2)CCN(c2ncnc3[nH]ccc23)CC1 [Capivasertib] + COc1nnc2ccc(N3CCC(c4ccc(OCCN5CCN(C)C(=O)[C@H]5C)cc4)CC3)nn12 [AZD5153] (first compound max 10 µM, 7x7, partner max 1 µM) , system COLO-829 (Melanoma).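 Note: after 72 h of two-drug dosing.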
0.011

Specify Bliss excess for COc1cccc(OCCCN)c1-c1cc(Nc2cnc(C#N)cn2)n[nH]1 [Prexasertib] + CCc1c2c(nc3ccc(O)cc13)-c1cc3c(c(=O)n1C2)COC(=O)[C@]3(O)CC [SN-38] (first compound max 1 µM, 7x7, partner max 0.3 µM) , system COLO-829 (Melanoma).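 Note: after 72 h of two-drug dosing.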
0.0036
